LD50 by entry:
Method Description: lethal toxicity produced when compound is administered along with […] (iv)
Type: organism-based, Homo sapiens
Run Conditions: mouse, in vivo
State the answer as a number, implicitly in µg.

Please list LD50 recorded for the compound CCCCCCCCCCCC(=O)O[C@H](CCCCCCCCCCC)CC(=O)NC1C(O)OC(COC2OC(CO)C(OP(=O)(O)O)C(OC(=O)C[C@@H](CCCCCCCCCCC)OC(=O)CCCCCCCCCCC)C2NC(=O)C[C@@H](CCCCCCCCCCC)OC(=O)CCCCCCCCCCC)C(O)C1O.CCN(CC)CC (some centres undefined)
0.04

Please list LD50 recorded for the compound CCCCCCCCCCC[C@H](CC(=O)NC1C(O)OC(COC2OC(CO)C(OP(=O)(O)O)C(OC(=O)C[C@@H](CCCCCCCCCCC)OC(=O)CCCCCCCCC)C2NC(=O)C[C@@H](CCCCCCCCCCC)OC(=O)CCCCCCCCC)C(O)C1O)OC(=O)CCCCCCCCC.CCN(CC)CC (some centres undefined)
0.02

Please list LD50 recorded for the compound CCCCCCCCCCCCCC(=O)O[C@H](CCCCCCCCCCC)CC(=O)NC1C(O)OC(COC2OC(CO)C(OP(=O)(O)O)C(OC(=O)C[C@@H](CCCCCCCCCCC)OC(=O)CCCCCCCCCCCCC)C2NC(=O)C[C@@H](CCCCCCCCCCC)OC(=O)CCCCCCCCCCCCC)C(O)C1O.CCN(CC)CC (some centres undefined)
1

Please list LD50 recorded for the compound CCCCCCCCCCCCCCCC(=O)O[C@H](CCCCCCCCCCC)CC(=O)NC1C(O)OC(COC2OC(CO)C(OP(=O)(O)O)C(OC(=O)C[C@@H](CCCCCCCCCCC)OC(=O)CCCCCCCCCCCCC)C2NC(=O)C[C@@H](CCCCCCCCCCC)OC(=O)CCCCCCCCCCC)C(O)C1O.CCN(CC)CC (some centres undefined)
1

Source listed as ChEMBL document CHEMBL1132185.
